biological target: EGFR dimers (Homo sapiens, UniProt P00533); experiment: ERBB dimerization split TEV assay EGFR/EGFR; type: cell-based; conditions: PC12 cells, 10 ng/ml EGFld; read-out: IC50, EGFR-NTEV-tevS-GV + EGFR-CTEV
Sequence (P00533 25-1210): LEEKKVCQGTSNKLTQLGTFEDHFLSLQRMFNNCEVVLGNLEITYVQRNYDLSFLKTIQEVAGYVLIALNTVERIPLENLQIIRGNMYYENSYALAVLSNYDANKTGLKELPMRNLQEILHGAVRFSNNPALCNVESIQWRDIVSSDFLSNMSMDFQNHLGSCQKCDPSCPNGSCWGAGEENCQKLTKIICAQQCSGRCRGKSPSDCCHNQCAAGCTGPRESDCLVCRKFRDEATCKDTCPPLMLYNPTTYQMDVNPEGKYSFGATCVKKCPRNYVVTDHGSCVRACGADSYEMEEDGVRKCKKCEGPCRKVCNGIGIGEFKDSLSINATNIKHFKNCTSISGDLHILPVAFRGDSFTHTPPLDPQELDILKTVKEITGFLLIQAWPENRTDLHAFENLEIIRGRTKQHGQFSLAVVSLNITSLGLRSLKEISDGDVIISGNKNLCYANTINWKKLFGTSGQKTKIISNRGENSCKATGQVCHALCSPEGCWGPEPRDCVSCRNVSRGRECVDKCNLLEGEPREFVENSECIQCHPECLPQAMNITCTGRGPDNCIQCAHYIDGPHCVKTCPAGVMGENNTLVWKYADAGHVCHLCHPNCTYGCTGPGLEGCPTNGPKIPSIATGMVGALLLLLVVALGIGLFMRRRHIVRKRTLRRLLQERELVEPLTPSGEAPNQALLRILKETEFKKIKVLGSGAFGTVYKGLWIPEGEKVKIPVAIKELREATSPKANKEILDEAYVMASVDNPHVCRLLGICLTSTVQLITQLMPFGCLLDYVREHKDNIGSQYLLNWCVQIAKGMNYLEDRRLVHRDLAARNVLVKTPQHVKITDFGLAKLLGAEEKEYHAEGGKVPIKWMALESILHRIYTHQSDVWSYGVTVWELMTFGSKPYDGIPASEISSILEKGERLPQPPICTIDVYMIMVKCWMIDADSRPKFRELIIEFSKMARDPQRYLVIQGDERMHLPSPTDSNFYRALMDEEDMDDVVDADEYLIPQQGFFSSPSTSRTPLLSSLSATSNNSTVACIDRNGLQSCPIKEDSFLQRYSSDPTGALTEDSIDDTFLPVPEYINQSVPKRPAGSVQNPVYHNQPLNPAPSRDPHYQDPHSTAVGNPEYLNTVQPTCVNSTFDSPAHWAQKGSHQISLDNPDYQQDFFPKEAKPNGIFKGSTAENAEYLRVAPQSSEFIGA
Sequence (P00533 25-1210): as above
Measured Parameter: pIC50
Keep it numeric: pIC50 is minus log10 of the concentration in mol/L.

Give the measured pIC50 for CC(=O)S[C@@H]1CC2=CC(=O)CC[C@]2(C)[C@H]2CC[C@@]3(C)[C@@H](CC[C@@]34CCC(=O)O4)[C@H]12
5.07
